Details: Liquid
Numbers after ± are expanded uncertainties.
Value kind: Critical pressure

Please fill in: Critical pressure reported for C/C=C\C [(Z)-2-butene] = 4225.5 ± 11 kPa

Please fill in: Critical pressure reported for C=C(C)C [2-methylpropene] = 4009.8 ± 11 kPa

Please fill in: Critical pressure reported for C=CCC [1-butene] = 4005.1 ± 11 kPa

Please fill in: Critical pressure reported for C/C=C/C [(E)-2-butene] = 4027.3 ± 11 kPa

----------
Conditions: Liquid; visual observation in a variable volume cell:FP
Numbers after ± are expanded uncertainties.
Value kind: Critical density
Param answer (str): number followed by unit.

Please fill in: Critical density reported for C/C=C/C [(E)-2-butene] = 236.4 ± 4.7 kg/m3

Please fill in: Critical density reported for C=CCC = 237.88 ± 4.8 kg/m3

Please fill in: Critical density reported for C/C=C\C [(Z)-2-butene] = 238.12 ± 4.8 kg/m3

Please fill in: Critical density reported for C=C(C)C = 233.97 ± 4.7 kg/m3

----------
Details: Liquid
± gives the expanded uncertainty stated by the source.
Value kind: Critical temperature

Please fill in: Critical temperature reported for C/C=C/C [(E)-2-butene] = 428.61 ± 0.11 K

Please fill in: Critical temperature reported for C=C(C)C = 418.09 ± 0.11 K

Please fill in: Critical temperature reported for C/C=C\C [(Z)-2-butene] = 435.75 ± 0.11 K

Please fill in: Critical temperature reported for C=CCC = 419.29 ± 0.11 K
